- measured-target: Fuc(a1-2)[GalNAc(a1-4)]Gal(b1-4)GlcNAc
- protocol-summary: glycan array binding signal (z-score within array); higher = stronger binding
- run-conditions: glycan notation: IUPAC condensed, linker removed
The full list was thinned out, with the strongest signals kept by preference.
endpoint-label: glycan array binding signal (z-score)
Number, no unit, nothing else.

Examples from the recorded data:
binder	observed-result
Tachylectin-2 (Tachypleus tridentatus), TAL2_TACTR (protein) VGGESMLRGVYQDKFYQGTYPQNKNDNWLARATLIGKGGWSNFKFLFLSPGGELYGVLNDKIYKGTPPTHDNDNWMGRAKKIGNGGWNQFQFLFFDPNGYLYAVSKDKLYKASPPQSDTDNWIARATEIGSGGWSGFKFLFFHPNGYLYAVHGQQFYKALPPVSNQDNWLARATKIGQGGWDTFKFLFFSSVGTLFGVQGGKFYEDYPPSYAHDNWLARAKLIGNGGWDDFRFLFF	3.88
HPAIIITrx (Helix pomatia), Q1KM18 (protein) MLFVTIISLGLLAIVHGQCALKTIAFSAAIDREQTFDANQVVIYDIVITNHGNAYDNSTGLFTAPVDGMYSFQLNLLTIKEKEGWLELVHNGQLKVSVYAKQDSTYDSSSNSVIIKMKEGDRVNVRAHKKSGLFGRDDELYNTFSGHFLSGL	3.52
NKp30 (Homo sapiens), O14931 (protein) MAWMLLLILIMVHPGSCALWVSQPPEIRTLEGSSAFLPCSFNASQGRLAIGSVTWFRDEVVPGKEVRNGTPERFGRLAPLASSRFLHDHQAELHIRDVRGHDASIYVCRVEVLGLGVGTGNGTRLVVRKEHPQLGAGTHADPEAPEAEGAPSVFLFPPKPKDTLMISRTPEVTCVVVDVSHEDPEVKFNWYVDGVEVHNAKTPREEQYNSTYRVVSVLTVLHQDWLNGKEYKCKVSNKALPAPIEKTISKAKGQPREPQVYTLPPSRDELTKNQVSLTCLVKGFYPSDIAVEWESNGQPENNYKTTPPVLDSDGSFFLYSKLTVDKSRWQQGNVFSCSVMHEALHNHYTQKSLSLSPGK	-0.379

Qu. Sample CGL3 (Coprinopsis cinerea) (protein) MGHHHHHHHHSGFHILRLESTVDLSEPLKDNGIIVFQSDKLDLEPSPNLGPTGIDNTNVNLINAKGDVLLHIGIRRRENAFVFNSIPYGESRGPEERIPLEGTFGDRRDPSITVFDHPDRYQIMIDYKTVYYYKKRLEGRCEKVSYKINEGQTPPFSDVLGVTVLYFANVMPRAN — what was its glycan array binding signal (z-score)?
Ans. -0.216

Qu. Proceed to MRCL (Homo sapiens), NP_872425.1 (protein) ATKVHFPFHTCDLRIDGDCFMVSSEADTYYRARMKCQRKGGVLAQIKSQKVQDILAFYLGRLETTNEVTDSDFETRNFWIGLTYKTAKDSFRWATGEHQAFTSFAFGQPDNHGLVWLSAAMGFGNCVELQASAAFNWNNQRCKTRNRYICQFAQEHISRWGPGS
Ans. 3.1

Qu. What do you have for MGL6A (Homo sapiens) (protein) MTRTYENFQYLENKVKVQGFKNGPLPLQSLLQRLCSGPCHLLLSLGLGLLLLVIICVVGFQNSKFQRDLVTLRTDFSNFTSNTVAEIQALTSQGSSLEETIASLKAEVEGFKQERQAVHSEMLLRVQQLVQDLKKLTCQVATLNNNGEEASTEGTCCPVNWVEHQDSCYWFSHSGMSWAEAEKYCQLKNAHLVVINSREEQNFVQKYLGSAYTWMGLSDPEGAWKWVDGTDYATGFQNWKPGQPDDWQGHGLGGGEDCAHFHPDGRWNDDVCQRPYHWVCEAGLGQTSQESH ?
Ans. 4.68
